- system: 3-phosphoinositide-dependent protein kinase 1 (Homo sapiens) (UniProt O15530);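 further: values are mean inhibition of PDK1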
- Sequence (whole entry): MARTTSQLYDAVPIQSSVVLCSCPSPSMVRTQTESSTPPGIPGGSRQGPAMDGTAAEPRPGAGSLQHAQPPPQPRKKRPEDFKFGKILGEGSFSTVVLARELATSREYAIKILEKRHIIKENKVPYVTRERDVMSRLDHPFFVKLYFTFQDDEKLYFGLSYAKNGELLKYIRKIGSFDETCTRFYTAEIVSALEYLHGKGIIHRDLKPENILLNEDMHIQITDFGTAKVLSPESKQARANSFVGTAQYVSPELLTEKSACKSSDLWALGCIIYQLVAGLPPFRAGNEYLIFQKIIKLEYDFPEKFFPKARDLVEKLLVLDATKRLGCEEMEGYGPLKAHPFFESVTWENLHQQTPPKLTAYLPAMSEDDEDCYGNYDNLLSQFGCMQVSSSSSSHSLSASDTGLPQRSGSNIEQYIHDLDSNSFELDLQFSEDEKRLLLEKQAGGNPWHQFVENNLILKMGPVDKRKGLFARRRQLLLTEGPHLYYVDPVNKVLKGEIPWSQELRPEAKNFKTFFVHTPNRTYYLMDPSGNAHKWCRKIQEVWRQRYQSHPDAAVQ
- condition: at 0.1 µM
The following molecules are shown together with reported inhibition values.
Report the figure in % without appending any unit label.

Known results for molecules:
# smiles-string, system, inhibition / %
data = [
    ("COc1cccc(Nc2nccc(-c3cnn4ncccc34)n2)c1", "3-phosphoinositide-dependent protein kinase 1 (Homo sapiens) (UniProt O15530)", 2.46),
    ("COc1c(C(N)=O)cc(-c2ccc(Cl)cc2)cc1-c1ccc(S(N)(=O)=O)cc1", "3-phosphoinositide-dependent protein kinase 1 (Homo sapiens) (UniProt O15530)", 1.2),
    ("Cc1ccc(-c2cc3c(NC(=O)C4CC4)ncnc3o2)cc1", "3-phosphoinositide-dependent protein kinase 1 (Homo sapiens) (UniProt O15530)", 1.92),
    ("CC1(C)CC(n2cnc(-c3ccc(F)cc3)c2-c2ccnc(N)n2)CC(C)(C)N1", "3-phosphoinositide-dependent protein kinase 1 (Homo sapiens) (UniProt O15530)", 0.82),
]

Look up inhibition: O=C(O[C@H]1CN[C@H](C#Cc2cc3ncnc(Nc4ccc5c(cnn5Cc5ccccc5)c4)c3s2)C1)N1CCOCC1
-1.36

Next molecule up: CS(=O)(=O)CCNCc1ccc(-c2ccc3ncnc(Nc4ccc(OCc5cccc(C(F)(F)F)c5)cc4)c3c2)o1
0.06

Next molecule up: NS(=O)(=O)c1ccc(N/N=C2\C(=O)Nc3ccc(C(=O)NCc4ccncc4)cc32)cc1
10.9

Next molecule up: COc1cc(Nc2ncc(-c3ccccc3)o2)cc(OC)c1
1.45

Next molecule up: CNC(=O)c1ncccc1Nc1nc(Nc2cc3c(cc2OC)CCCN3C(=O)CN(C)C)nc2[nH]ccc12
3.18
